Assay Info: Concentration of meloxicam in plasma of dogs after single subcutaneous silica hydrogel depot
Type: in vivo
Reported Conditions: dog, sc, 3.16 mg meloxicam/kg bodyweight, Dog 2, 1.0 hours, single s.c. silica hydrogel depot
Experimental Readout: concentration at 1 hours (ng/mL)
Numbers only, in ng/mL.

query: Look up concentration at 1 hours: Cc1cnc(NC(=O)C2=C(O)c3ccccc3S(=O)(=O)N2C)s1
result: 76

====

Assay Info: Concentration of meloxicam in plasma of dogs after single subcutaneous silica hydrogel depot
Format: in vivo
Reported Conditions: dog, sc, 3.16 mg meloxicam/kg bodyweight, Dog 2, 2.0 hours, single s.c. silica hydrogel depot
Experimental Readout: concentration at 2 hours (ng/mL)
Give bare numbers, in ng/mL.

query: Look up concentration at 2 hours: Cc1cnc(NC(=O)C2=C(O)c3ccccc3S(=O)(=O)N2C)s1
result: 153

====

Assay Info: Concentration of meloxicam in plasma of dogs after single subcutaneous silica hydrogel depot
Type: in vivo
Reported Conditions: dog, sc, 3.16 mg meloxicam/kg bodyweight, Dog 2, 1008.0 hours, single s.c. silica hydrogel depot
Experimental Readout: concentration at 1008 hours (ng/mL)
Answers are plain numbers, in ng/mL.

query: Look up concentration at 1008 hours: Cc1cnc(NC(=O)C2=C(O)c3ccccc3S(=O)(=O)N2C)s1
result: 17.9

====

Assay Info: Concentration of meloxicam in plasma of dogs after single subcutaneous silica hydrogel depot
Format: in vivo
Reported Conditions: dog, sc, 3.16 mg meloxicam/kg bodyweight, Dog 1, 4.0 hours, single s.c. silica hydrogel depot
Experimental Readout: concentration at 4 h (ng/mL)
Answers are plain numbers, in ng/mL.

query: Look up concentration at 4 h: Cc1cnc(NC(=O)C2=C(O)c3ccccc3S(=O)(=O)N2C)s1 [meloxicam]
result: 402

====

Assay Info: Concentration of meloxicam in plasma of dogs after single subcutaneous silica hydrogel depot
Format: in vivo
Reported Conditions: dog, sc, 3.16 mg meloxicam/kg bodyweight, Dog 2, 1344.0 hours, single s.c. silica hydrogel depot
Experimental Readout: concentration at 1344 hours (ng/mL)
Numbers only, in ng/mL.

query: Look up concentration at 1344 hours: Cc1cnc(NC(=O)C2=C(O)c3ccccc3S(=O)(=O)N2C)s1
result: 2.6

====

Assay Info: Concentration of meloxicam in plasma of dogs after single subcutaneous silica hydrogel depot
Format: in vivo
Reported Conditions: dog, sc, 3.16 mg meloxicam/kg bodyweight, Dog 1, 576.0 hours, single s.c. silica hydrogel depot
Experimental Readout: concentration at 576 h (ng/mL)
Answers are plain numbers, in ng/mL.

query: Look up concentration at 576 h: Cc1cnc(NC(=O)C2=C(O)c3ccccc3S(=O)(=O)N2C)s1
result: 2.6

====

Assay Info: Concentration of meloxicam in plasma of dogs after single subcutaneous silica hydrogel depot
Assay type: in vivo
Reported Conditions: dog, sc, 3.16 mg meloxicam/kg bodyweight, Dog 3, 840.0 hours, single s.c. silica hydrogel depot
Experimental Readout: concentration at 840 hours
Units required after the number.

query: Look up concentration at 840 hours: Cc1cnc(NC(=O)C2=C(O)c3ccccc3S(=O)(=O)N2C)s1
result: 6.5 ng/mL

====

Assay Info: Concentration of meloxicam in plasma of dogs after single subcutaneous silica hydrogel depot
Format: in vivo
Reported Conditions: dog, sc, 3.16 mg meloxicam/kg bodyweight, Dog 1, 8.0 hours, single s.c. silica hydrogel depot
Experimental Readout: concentration at 8 h (ng/mL)
One number for each entry, in ng/mL.

query: Look up concentration at 8 h: Cc1cnc(NC(=O)C2=C(O)c3ccccc3S(=O)(=O)N2C)s1 [meloxicam]
result: 294
